Data origin, for the record: ChEMBL document CHEMBL3576839

tested on: MDR1; assay: Apparent permeability from apical to basolateral side in MDCK cells expressing MDR1; assay type: ADME, cell-based, Canis lupus familiaris; details: dog
measured metric: Papp A→B

• CC(=O)N1CCN(c2ccc(C(F)(F)F)cc2)c2ccc(-c3cccc([C@H](O)CO)n3)cc2C1 = 0.9 ×10⁻⁶ cm/s

---

experiment: Kinetic solubility of the compound at pH 1.2; type: physicochemical; conditions: buffer, read-out: Kinetic_solubility
measured metric: solubility kinetic (µM)

* NC(=O)c1cccc(-c2ccc3c(c2)CNCCN3c2ccc(C(F)(F)F)cc2)n1 | 18
* NC(=O)c1cccc(-c2ccc3c(c2)CCCCN3c2ccc(C(F)(F)F)cc2)n1 | 0.03
* NC(=O)N1CCN(c2ccc(C(F)(F)F)cc2)c2ccc(-c3cccc([C@H](O)CO)n3)cc2C1 | 66
* CC(=O)N1CCN(c2ccc(C(F)(F)F)cc2)c2ccc(-c3cccc([C@H](O)CO)n3)cc2C1 | 80
* NC(=O)c1cccc(-c2ccc3c(c2)OCCCN3c2ccc(C(F)(F)F)cc2)n1 | 0.08

---

Recorded inhibition at 1 µM for the following compounds
biological target: UniProt Q12809; test: Inhibition of human ERG at 1 uM
Sequence (Q12809 whole entry): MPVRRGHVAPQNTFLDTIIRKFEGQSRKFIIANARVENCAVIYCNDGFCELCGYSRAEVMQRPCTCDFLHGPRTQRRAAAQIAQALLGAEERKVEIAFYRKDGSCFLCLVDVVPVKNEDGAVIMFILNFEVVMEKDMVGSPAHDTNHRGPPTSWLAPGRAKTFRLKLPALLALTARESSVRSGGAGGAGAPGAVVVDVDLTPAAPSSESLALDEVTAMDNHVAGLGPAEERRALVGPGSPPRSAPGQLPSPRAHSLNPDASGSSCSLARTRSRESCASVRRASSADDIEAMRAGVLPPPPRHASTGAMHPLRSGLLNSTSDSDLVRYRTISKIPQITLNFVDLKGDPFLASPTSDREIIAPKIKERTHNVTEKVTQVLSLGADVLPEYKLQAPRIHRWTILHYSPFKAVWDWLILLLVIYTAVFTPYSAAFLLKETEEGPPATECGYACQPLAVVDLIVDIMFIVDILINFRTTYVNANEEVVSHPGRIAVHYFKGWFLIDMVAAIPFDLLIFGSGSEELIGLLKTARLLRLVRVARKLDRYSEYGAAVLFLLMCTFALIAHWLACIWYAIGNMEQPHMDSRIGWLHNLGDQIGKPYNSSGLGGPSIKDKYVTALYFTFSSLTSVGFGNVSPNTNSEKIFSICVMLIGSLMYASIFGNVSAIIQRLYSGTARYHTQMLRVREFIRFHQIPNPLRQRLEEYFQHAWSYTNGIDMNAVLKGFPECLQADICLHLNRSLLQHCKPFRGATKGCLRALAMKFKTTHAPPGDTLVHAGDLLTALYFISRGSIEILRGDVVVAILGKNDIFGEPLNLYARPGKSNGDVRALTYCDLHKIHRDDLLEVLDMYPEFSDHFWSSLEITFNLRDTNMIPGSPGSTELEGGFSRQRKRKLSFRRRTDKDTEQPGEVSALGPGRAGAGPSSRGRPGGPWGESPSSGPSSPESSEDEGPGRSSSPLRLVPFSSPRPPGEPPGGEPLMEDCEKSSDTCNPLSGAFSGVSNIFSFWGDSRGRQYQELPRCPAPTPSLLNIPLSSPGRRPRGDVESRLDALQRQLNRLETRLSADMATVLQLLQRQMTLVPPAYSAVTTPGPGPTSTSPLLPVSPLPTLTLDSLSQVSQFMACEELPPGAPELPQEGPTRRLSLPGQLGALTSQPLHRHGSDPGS
measured metric: inhibition at 1 µM

* CC(=O)N1CCN(c2ccc(C(F)(F)F)cc2)c2ccc(-c3cccc([C@H](O)CO)n3)cc2C1 | 13.9%
* NC(=O)N1CCN(c2ccc(C(F)(F)F)cc2)c2ccc(-c3cccc([C@H](O)CO)n3)cc2C1 | 22.6%
